# Study System: Glutamate receptor ionotropic, kainate 1 (Rattus norvegicus)
# Sequence (P22756 whole entry, the tested form may be a part): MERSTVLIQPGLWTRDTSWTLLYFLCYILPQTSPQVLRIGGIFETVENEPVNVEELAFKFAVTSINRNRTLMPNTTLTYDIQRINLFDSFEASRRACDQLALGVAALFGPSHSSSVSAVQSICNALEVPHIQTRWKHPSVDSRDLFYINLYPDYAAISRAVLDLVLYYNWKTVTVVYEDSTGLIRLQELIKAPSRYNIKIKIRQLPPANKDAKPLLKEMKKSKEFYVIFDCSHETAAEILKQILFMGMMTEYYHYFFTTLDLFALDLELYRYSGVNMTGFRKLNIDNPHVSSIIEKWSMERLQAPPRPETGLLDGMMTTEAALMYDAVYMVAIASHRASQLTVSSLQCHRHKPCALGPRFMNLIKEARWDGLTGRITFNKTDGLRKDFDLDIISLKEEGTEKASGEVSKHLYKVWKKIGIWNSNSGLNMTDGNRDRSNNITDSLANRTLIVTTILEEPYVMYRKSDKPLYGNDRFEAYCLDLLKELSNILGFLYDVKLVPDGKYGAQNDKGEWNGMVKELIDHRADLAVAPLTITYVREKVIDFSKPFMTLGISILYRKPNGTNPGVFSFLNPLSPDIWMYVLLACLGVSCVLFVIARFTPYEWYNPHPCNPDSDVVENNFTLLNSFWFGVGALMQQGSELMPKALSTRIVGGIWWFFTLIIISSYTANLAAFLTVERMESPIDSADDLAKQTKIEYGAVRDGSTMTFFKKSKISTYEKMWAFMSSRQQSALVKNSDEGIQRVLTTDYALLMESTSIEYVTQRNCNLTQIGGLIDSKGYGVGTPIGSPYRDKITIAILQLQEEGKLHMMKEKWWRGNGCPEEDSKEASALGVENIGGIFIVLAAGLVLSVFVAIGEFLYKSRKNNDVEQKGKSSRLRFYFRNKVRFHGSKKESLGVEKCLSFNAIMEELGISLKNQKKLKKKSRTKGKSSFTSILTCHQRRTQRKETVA
# Experiment Summary: Displacement of [3H]NF608 from eGFP-fused recombinant rat full length GluK1 receptor expressed in HEK293T/17 cells by liquid scintillation counting method
# Assay type: cell-based
# Applied Conditions: read-out: Ki
pKi: −log10 of the molar value.

Smiles Str	pKi
O=C(O)c1ccc2ccccc2c1O[C@H]1CN[C@H](C(=O)O)C1	< 4.00
O=C(O)c1ccccc1O[C@@H]1CN[C@H](C(=O)O)C1	< 4.00
O=C(O)c1cccc(S[C@@H]2CN[C@H](C(=O)O)C2)c1	< 4.00
Cl.O=C(O)c1cccc(C[C@H]2CN[C@H](C(=O)O)C2)c1	< 4.00
Cl.O=C(O)c1ccc(O[C@H]2CN[C@H](C(=O)O)C2)cc1	< 4.00
